Listing of entries alongside the reported GI50.
- System: DMS-273
- METHOD SUMMARY: NCI tumour cell line growth inhibition, 48 h
The source made the active and inactive calls. No stated cut-off is given here; in the data, active = GI50 up to about 1.1 µM and inactive = higher.

# MOLECULE, GI50
measured = [
    ("O=C(Cc1nc(-c2ccccc2)cc(=O)n1-c1ccccc1Cl)c1ccncc1", "> 100 µM (inactive)"),
    ("Nc1nc(SCCC/C=C/B(O)O)nc2c1ncn2C1OC(CO)C(O)C1O (centres undefined)", "> 243 µM (inactive)"),
    ("O=C(N/N=C(\\c1nc2ccc(Cl)cc2nc1O)C(O)c1ccccc1Cl)c1ccncc1 (centres undefined)", "> 100 µM (inactive)"),
    ("CN(C)CC1(C)CC/C(=C\\c2ccc(Cl)cc2)C1=O (centres undefined)", "20.7 µM (inactive)"),
]

---

- Test system: SF-539
- METHOD SUMMARY: NCI tumour cell line growth inhibition, 48 h
The source made the active and inactive calls. Rule as the data show it: active = GI50 up to about 1.1 µM and inactive = higher.
Outcome codes: active, inactive

# COMPOUND, CATEGORY
records = [
    ("O=C1Nc2c(Cl)cccc2/C1=N/Nc1ccccc1[N+](=O)[O-]", "inactive"),
    ("O/N=C1/C(=C/c2ccc(OCc3ccccc3)cc2)CCCC1C(NO)c1ccc(OCc2ccccc2)cc1 (stereo not drawn)", "inactive"),
    ("N#CC1=C(N)OC(c2cccc([N+](=O)[O-])c2)C1(C#N)C#N (stereo not drawn)", "inactive"),
    ("NC1C2(CCCCCC2)NC(=O)C12CCCCCC2 (stereo not drawn)", "inactive"),
    ("O=[N+]([O-])/C=C/c1cc2ccc3ccccc3c2[nH]1", "inactive"),
    ("COc1cc([N+](=O)[O-])c(S(=O)(=O)O)cc1N", "inactive"),
    ("COc1ccc2nc3cc(Cl)ccc3c(SCC(=O)Nc3ccccc3-c3ccccc3NC(=O)CSc3c4ccc(Cl)cc4nc4ccc(OC)cc34)c2c1", "inactive"),
    ("CSc1[nH]nc(N)c1C(=O)Nc1ccccc1", "inactive"),
    ("NC(=O)c1c(-c2ccccc2)c(-c2ccccc2)cc2c(=O)c3ccccc3[nH]c12", "inactive"),
    ("CCO/N=[N+](\\[O-])N(CC)CC", "inactive"),
    ("CCCCCCCCCCCCCCCCCCNc1ccn(C2OC(COP(=O)(O)OCC3OC(n4cc(C)c(=O)[nH]c4=O)CC3F)C(O)C2O)c(=O)n1 (stereo not drawn)", "inactive"),
    ("CC[C@@]1(O)C[C@H](OC2CC(N(C)C)C(O)C(C)O2)c2c(O)c3c(c(O)c2[C@H]1OC1CC(N(C)C)C(O)C(C)O1)C(=O)c1cccc(O)c1C3=O (stereo partly drawn)", "active"),
    ("O=c1cc(-c2ccccc2)oc2cc(OCCCOc3ccc4c(=O)cc(-c5ccccc5)oc4c3)ccc12", "inactive"),
]

---

- Tested on: HOP-62
- METHOD SUMMARY: NCI tumour cell line growth inhibition, 48 h
Calls of active or inactive are those of the source. Cut-off read from the data, not from the text of the source: active = GI50 up to about 1.1 µM and inactive = higher.

# SMILES NOTATION, GI50
records = [
    ("Cc1nc(N)nc(N)c1N1CCN(Cc2ccccc2)CC1", "42.4 µM (inactive)"),
    ("COc1cc(Nc2nc3c(N)cc(C(F)(F)F)cc3nc2-c2ccccc2)cc(OC)c1OC", "26.3 µM (inactive)"),
    ("O=C1Nc2cccc(C(F)(F)F)c2/C1=N/Nc1ccccc1[N+](=O)[O-]", "25.1 µM (inactive)"),
]

---

Listing of entries alongside the reported GI50.
- Test system: HOP-62
- METHOD SUMMARY: NCI tumour cell line growth inhibition, 48 h
Calls of active or inactive are those of the source. Cut-off read from the data, not from the text of the source: active = GI50 up to about 1.1 µM and inactive = higher.
QUANTITY MEASURED: GI50

# MOLECULE, ASSAYED SYSTEM, QUANTITY MEASURED, MEASURED
records = [
    ("Cc1c(-c2cnccn2)ssc1=S", "HOP-62", "GI50", "47 µM (inactive)"),
    ("CCCN(CCCCC(NC(C)=O)C(=O)NCc1ccccc1)C(=O)NC (stereo not given)", "HOP-62", "GI50", "> 100 µM (inactive)"),
    ("CC(C)[Si](OC1=C(C(=O)N(C)c2cccc(Cl)c2)CCCC1)(C(C)C)C(C)C", "HOP-62", "GI50", "17.6 µM (inactive)"),
    ("O=C(Cc1ccc(O)c(O)c1)NCc1c[nH]c2ccccc12", "HOP-62", "GI50", "17.8 µM (inactive)"),
    ("CCOc1ccc(N/C(=C(/C(Cl)=C(/Cl)N2CCCCC2)[N+](=O)[O-])n2nnc3ccccc32)cc1", "HOP-62", "GI50", "21.4 µM (inactive)"),
    ("CCOC(=O)[C@]1(OC(C)=O)C[C@H](OC(C)=O)[C@@H](C(F)COP(=O)(OCc2ccccc2)OCc2ccccc2)O1 (stereo not given in full)", "HOP-62", "GI50", "> 100 µM (inactive)"),
    ("C=C1C(OC(C)=O)CC(OC(C)=O)C2(C)C(OC(C)=O)C(OC(C)=O)C3=C(C)C(OC(=O)/C=C/c4ccccc4)CC(C(OC(C)=O)C12)C3(C)C (stereo not given)", "HOP-62", "GI50", "31 µM (inactive)"),
    ("COc1ccc(C(=O)/C=C2\\Nc3cccnc3N\\C2=C/C(=O)c2ccc(OC)cc2)cc1", "HOP-62", "GI50", "4.94 µM (inactive)"),
    ("Cc1nc2ccccc2c(=O)n1-c1n[nH]c2ccccc12", "HOP-62", "GI50", "> 100 µM (inactive)"),
    ("COC(=O)C(C#N)C1NC(=O)c2ccccc21 (stereo not given)", "HOP-62", "GI50", "> 100 µM (inactive)"),
]

---

- System: SN12C
- METHOD SUMMARY: NCI tumour cell line growth inhibition, 48 h
Activity calls are given as the source filed them. No stated cut-off is given here; in the data, active = GI50 up to about 1.1 µM and inactive = higher.
Listing of entries alongside the reported GI50.
QUANTITY MEASURED: GI50

# COMPOUND, MEASURED
rows = [
    ("CC1CN(C)c2ccccc2N=C1NN (stereo not drawn)", "> 100 µM (inactive)"),
    ("N/C(=N\\N=C\\c1cc2ccccc2s1)c1cnccn1", "> 100 µM (inactive)"),
    ("O=C(CCC1OCCO1)Nc1cc(NCc2ccccc2)ccc1OCc1ccccc1", "46.8 µM (inactive)"),
]

---

- System: T47D
- METHOD SUMMARY: NCI tumour cell line growth inhibition, 48 h
Active and inactive are the calls of the source. No stated cut-off is given here; in the data, active = GI50 up to about 1.1 µM and inactive = higher.
Listing of entries alongside the reported GI50.

# COMPOUND, GI50
measured = [
    ("N=C(N)NS(=O)(=O)c1ccc(NC(=O)c2ccc3nc4ccccc4c(Nc4ccc(S(=O)(=O)N=C(N)N)cc4)c3c2)cc1", "> 100 µM (inactive)"),
    ("COc1ccc(C(=O)N2CCc3c([nH]c4ccccc34)C2C(=O)O)o1 (centres undefined)", "> 10 µM (inactive)"),
    ("Cc1c(-c2cnccn2)ssc1=S", "67.6 µM (inactive)"),
    ("CN(C(=O)c1cccs1)C(=S)N1CCN(c2ccccc2)CC1", "> 100 µM (inactive)"),
    ("Cc1c(-c2nc(N)c(C#N)c(N)c2C#N)c(=O)oc2ccccc12", "89.5 µM (inactive)"),
    ("Cc1ccccc1N/C(=C(/C(Cl)=C(Cl)Cl)[N+](=O)[O-])n1nnc2ccccc21", "21 µM (inactive)"),
    ("CC1(C)C2CCC(N)(C2)C1N (centres undefined)", "> 100 µM (inactive)"),
    ("NC1N=C(c2ccc(Cl)cc2)C2=C(N1)c1ccccc1CC2 (centres undefined)", "10.4 µM (inactive)"),
    ("c1ccc(-c2ccc(/N=N/N3CCCC3)cc2)cc1", "> 100 µM (inactive)"),
]

---

- Test system: A549
- METHOD SUMMARY: NCI tumour cell line growth inhibition, 48 h
Calls of active or inactive are those of the source. No stated cut-off is given here; in the data, active = GI50 up to about 1.1 µM and inactive = higher. Square brackets hold non-standard residues; d marks the D form. Peptide text beside a SMILES is read from it.
Outcome codes: Y = active, N = inactive

# COMPOUND, ASSAYED SYSTEM, CATEGORY
rows = [
    ("C[N+]12c3ccccc3O[B-]1(c1ccccc1)Oc1ccccc12 (stereo not drawn)", "A549", "N"),
    ("N#CN1CC[C@@H]2CC3(CCC2C1)OCCO3 (stereo partly drawn)", "A549", "N"),
    ("C=CCN1C(=O)/C(=C/c2ccc(C)cc2)N=C1SC/C=C/C", "A549", "N"),
    ("COc1ccc(-c2c3ccccc3c(-c3ccc(OC)cc3)c3ccccc23)cc1", "A549", "N"),
    ("COc1cc(C2c3cc4c(cc3OC(NCc3ccccc3)C2C)OCO4)cc(OC)c1OC (stereo not drawn)", "A549", "Y"),
    ("COC(=O)C(=NNc1ccccc1[N+](=O)[O-])C(=O)OC", "A549", "N"),
    ("Cc1cccc(C)c1NC(=O)/C(Cc1nc2ccc([N+](=O)[O-])cc2nc1O)=N\\NC(N)=O", "A549", "N"),
    ("C=CCC1C2CCC(O[Si](C(C)C)(C(C)C)C(C)C)(C(C(=O)OC)C2)C1O (stereo not drawn)", "A549", "N"),
    ("Cc1nc(-c2cccnc2)sc1C(=O)/C=C/c1cccc([N+](=O)[O-])c1", "A549", "N"),
    ("CCOC(=O)[C@]1(OC(C)=O)C[C@H](OC(C)=O)[C@@H](C(F)COP(=O)(OCc2ccccc2)OCc2ccccc2)O1 (stereo partly drawn)", "A549", "N"),
    ("O=C1c2c(ccc3c2CCC3)CC12Cc1cc3c(cc1C2)CCC3", "A549", "N"),
    ("N=C(N)NCCC[C@H]1NC(=O)[C@@H](CCC(=O)O)NC(=O)[C@@H](CC(=O)O)NC(=O)[C@@H](CCC(=O)O)NC(=O)[C@H](Cc2c[nH]c3ccccc23)NC1=O (cyclo(W[dE][dD][dE][dR]))", "A549", "N"),
    ("CCN(CC)C(=O)Cn1c2ccccc2[n+]2cc(N)ccc12", "A549", "N"),
    ("N=C(N)NS(=O)(=O)c1ccc(NC(=O)c2cccc3cc4ccccc4nc23)cc1", "A549", "N"),
    ("N#Cc1nc(-c2ccccc2C(=O)O)oc1N", "A549", "N"),
    ("CCOC(=O)c1[nH]c(CN(C)Cc2[nH]c(C(=O)OCC)c(C)c2C(=O)OCc2ccccc2)c(C(=O)OCc2ccccc2)c1C", "A549", "N"),
    ("CN(C)/C=N\\c1c(Br)cc(Br)c2nonc12", "A549", "N"),
    ("Cc1nc(N)nc(N)c1N1CCN(Cc2ccccc2)CC1", "A549", "N"),
    ("CC1(C)N=c2c(ncn2Cc2ccccc2)=C(C(N)=O)N1", "A549", "N"),
    ("COc1cc([N+](=O)[O-])ccc1NC(=O)C(F)(F)F", "A549", "N"),
    ("Cc1[nH]c2ccccc2c1C(=O)CC1(O)C(=O)Nc2c(Cl)cc(Cl)cc21 (stereo not drawn)", "A549", "N"),
    ("CC[C@@]1(O)C[C@H](OC2CC(N(C)C)C(O)C(C)O2)c2c(O)c3c(c(O)c2[C@H]1OC1CC(N(C)C)C(O)C(C)O1)C(=O)c1cccc(O)c1C3=O (stereo partly drawn)", "A549", "Y"),
    ("OCC1OC(n2cnc3c(Cl)nc(Nc4ccccc4)nc32)CC1O (stereo not drawn)", "A549", "N"),
    ("O=c1cc(NCC2CCCCC2)[nH]c(=O)[nH]1", "A549", "N"),
    ("NCCCn1c2ccccc2c2c3c(c4c(c21)CCC(O)CC4)C(=O)NC3=O (stereo not drawn)", "A549", "N"),
    ("CCO/N=[N+](\\[O-])N(CC)CC", "A549", "N"),
    ("C=C1C(=O)OC2/C=C(\\C)CC(O)/C=C(/CO)CC(OC(=O)/C(C)=C/C)C12 (stereo not drawn)", "A549", "N"),
    ("O=C1Nc2c(Cl)cccc2/C1=N/Nc1ccccc1[N+](=O)[O-]", "A549", "N"),
]
